- PROTOCOL_NOTES: Pharmacokinetic analysis in rats (cassette dosing, intravenous)
- Assay type: in vivo
- CONDITION: male, Crl, CD (SD), rat, plasma, intravenous administration (0.5 mg/mL/kg), read-out: Rat CLtot
MEASURED_METRIC: clearance (mL/min/kg)
Answer with a number only, understood to be in mL/min/kg.

Worked examples, 3 molecules total:
MOLECULE | clearance (mL/min/kg)
CC(C)(C)S(=O)(=O)N[C@H]1CC[C@H](c2nc(-c3ccccc3)c(Cl)[nH]2)CC1 [IIIb-1] | 3.46
CC(C)(C)S(=O)(=O)N[C@H]1CC[C@H](c2nc(-c3ccc(Cl)c(Cl)c3)c[nH]2)CC1 [IIIa-4] | 14.8
CC(C)(C)S(=O)(=O)N[C@H]1CC[C@H](c2cc3cc(-c4ncccn4)ccc3[nH]2)CC1 [Ia-8] | 17.8

Looking up CC(C)(C)S(=O)(=O)N[C@H]1CC[C@H](c2nc(-c3ccccc3)c(C(F)(F)F)[nH]2)CC1 [IIIb-5] , I found its clearance recorded as 3.84
